// provenance: PubChem BioAssay AID2060909

- System: 362531-283-R-J2-PDC complex spheroid viability
- measurementProtocol: Anticancer human tumor 362531-283-R-J2-PDC patient-derived colon adenocarcinoma cell line growth inhibition [RAS]
- assaySetup: second compound 0.00949 µM; first compound 0.0316 µM; stronger effect = lower value
Listed here are molecules together with their documented viability, T/C.

Worked examples, 4 molecules total:
Input NC1c2ccccc2OC12CCN(c1cnc3c(N4CCCc5ncccc54)n[nH]c3n1)CC2 (stereo not given) + CCn1c(-c2cccnc2C(C)OC)c2c3cc(ccc31)N1CCOC(CC(NC(=O)C(C(C)C)N(C)C(=O)C3(F)CCN(C(=O)C#CC(C)(C)N(C)C)CC3)C(=O)N3CCCC(N3)C(=O)OCC(C)(C)C2)C1 . Output viability, T/C: 86.6%

For Cc1nc(N2CCC3(CC2)COC(C)C3N)c(CO)nc1Sc1ccnc(N)c1Cl (stereo not given) + CCn1c(-c2cccnc2C(C)OC)c2c3cc(ccc31)N1CCOC(CC(NC(=O)C(C(C)C)N(C)C(=O)C3(F)CCN(C(=O)C#CC(C)(C)N(C)C)CC3)C(=O)N3CCCC(N3)C(=O)OCC(C)(C)C2)C1 the molecule record lists viability, T/C as 102%

Documented viability, T/C of O=C(c1ccc(F)c(F)c1Nc1ccc(I)cc1F)N1CC(O)([C@@H]2CCCCN2)C1 + CCn1c(-c2cc(N3CCN(C)CC3)cnc2C(C)OC)c2c3cc(ccc31)-c1csc(n1)CC(NC(=O)C1CC1C)C(=O)N1CCCC(N1)C(=O)OCC(C)(C)C2 : 81.4%

get_value(item= CC(=O)OC12COC1CC(O)C1(C)C(=O)C(O)C3=C(C)C(OC(=O)C(O)C(NC(=O)OC(C)(C)C)c4ccccc4)CC(O)(C(OC(=O)c4ccccc4)C21)C3(C)C (stereo not given) + CCn1c(-c2cc(N3CCN(C)CC3)cnc2C(C)OC)c2c3cc(ccc31)-c1csc(n1)CC(NC(=O)C1CC1C)C(=O)N1CCCC(N1)C(=O)OCC(C)(C)C2 , readout=viability, T/C) returns 94.2%

Attention now turns to another entry.
Recorded viability, T/C (molecule CCC(CC)c1cc(NC2CCC(N)C2)n2nccc2n1 (stereo not given) + CCn1c(-c2cccnc2C(C)OC)c2c3cc(ccc31)N1CCOC(CC(NC(=O)C(C(C)C)N(C)C(=O)C3(F)CCN(C(=O)C#CC(C)(C)N(C)C)CC3)C(=O)N3CCCC(N3)C(=O)OCC(C)(C)C2)C1 ): 103%

====

- Tested on: 362531-283-R-J2-PDC complex spheroid viability
- measurementProtocol: Anticancer human tumor 362531-283-R-J2-PDC cell line growth inhibition [RAS]; active = viability on the fitted dose curve at most 10% of control; inactive = the rest;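 note: spheroids exposed to the agents for 7 days before readout; luminescence viability as percent of DMSO vehicle control wells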
- assaySetup: second compound 0.03 µM; first compound 3.16 µM
Can you answer with just one of these options? active, inactive

In: State the result this test recorded for CCC(CC)c1cc(NC2CCC(N)C2)n2nccc2n1 (centres undefined) + CCn1c(-c2cccnc2C(C)OC)c2c3cc(ccc31)N1CCOC(CC(NC(=O)C(C(C)C)N(C)C(=O)C3(F)CCN(C(=O)C#CC(C)(C)N(C)C)CC3)C(=O)N3CCCC(N3)C(=O)OCC(C)(C)C2)C1 .
Out: inactive

In: # fetch the recorded call for CC1(O)CCCC1n1c(=O)c(C(F)F)cc2cnc(NC3CCN(S(C)(=O)=O)CC3)nc21 (centres undefined) + CCn1c(-c2cc(N3CCN(C)CC3)cnc2C(C)OC)c2c3cc(ccc31)-c1csc(n1)CC(NC(=O)C1CC1C)C(=O)N1CCCC(N1)C(=O)OCC(C)(C)C2 here
Out: inactive

In: Check the results log: what was the call for NC1c2ccccc2OC12CCN(c1cnc3c(N4CCCc5ncccc54)n[nH]c3n1)CC2 (centres undefined) + CCn1c(-c2cc(N3CCN(C)CC3)cnc2C(C)OC)c2c3cc(ccc31)-c1csc(n1)CC(NC(=O)C1CC1C)C(=O)N1CCCC(N1)C(=O)OCC(C)(C)C2 ?
Out: active

In: Check the results log: what was the call for CC(=O)OC12COC1CC(O)C1(C)C(=O)C(O)C3=C(C)C(OC(=O)C(O)C(NC(=O)OC(C)(C)C)c4ccccc4)CC(O)(C(OC(=O)c4ccccc4)C21)C3(C)C (centres undefined) + CCn1c(-c2cc(N3CCN(C)CC3)cnc2C(C)OC)c2c3cc(ccc31)-c1csc(n1)CC(NC(=O)C1CC1C)C(=O)N1CCCC(N1)C(=O)OCC(C)(C)C2 ?
Out: active

In: Hi, sorry to bother you, what did the test record for C[C@@H](NC(=O)c1ncnc(N)c1Cl)c1ncc(C(=O)Nc2cc(C(F)(F)F)c(Cl)cn2)s1 + CCn1c(-c2cc(N3CCN(C)CC3)cnc2C(C)OC)c2c3cc(ccc31)-c1csc(n1)CC(NC(=O)C1CC1C)C(=O)N1CCCC(N1)C(=O)OCC(C)(C)C2 ?
Out: inactive

Query compound follows.
In: Which outcome did this test record for the compound Cc1nc(N2CCC3(CC2)COC(C)C3N)c(CO)nc1Sc1ccnc(N)c1Cl (centres undefined) + CCn1c(-c2cccnc2C(C)OC)c2c3cc(ccc31)N1CCOC(CC(NC(=O)C(C(C)C)N(C)C(=O)C3(F)CCN(C(=O)C#CC(C)(C)N(C)C)CC3)C(=O)N3CCCC(N3)C(=O)OCC(C)(C)C2)C1 ?
Out: inactive

====

- Test system: 362531-283-R-J2-PDC complex spheroid viability
- measurementProtocol: Anticancer human tumor 362531-283-R-J2-PDC cell line growth inhibition [RAS];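 note: spheroids exposed to the agents for 7 days before readout; luminescence viability as percent of DMSO vehicle control wells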
- assaySetup: second compound 0.1 µM; first compound 0.00949 µM; stronger effect = lower value
measuredQuantity: viability, T/C (%)
Please state the figure in %; there is no need to write the unit.

Use these answered entries as a reference point.
# molecule CCc1c2c(nc3ccc(O)cc13)-c1cc3c(c(=O)n1C2)COC(=O)[C@]3(O)CC + C=CC(=O)N1CCN(c2nc(OCC3CCCN3C)nc3c(F)c(-c4nc(N)cc(C)c4C(F)(F)F)c(Cl)cc23)C(C)C1 ; its viability, T/C = 54

Looking up CCc1c2c(nc3ccc(O)cc13)-c1cc3c(c(=O)n1C2)COC(=O)[C@]3(O)CC + C#Cc1c(F)ccc2cc(O)cc(-c3ncc4c(N5CC6CCC(C5)N6)nc(OCC56CCCN5CC(F)C6)nc4c3F)c12 , I found its viability, T/C recorded as 64.3

Reported viability, T/C of CC1(C)CCC(Nc2ncc(C(F)(F)F)c(-c3c[nH]c4c(P(C)(C)=O)c(C#N)ccc34)n2)CN1 (centres undefined) + C=CC(=O)N1CCN(c2nc(OCC3CCCN3C)nc3c(F)c(-c4nc(N)cc(C)c4C(F)(F)F)c(Cl)cc23)C(C)C1 : 104

Further cases:
Value of measured viability, T/C for the entry CC1(C)CCC(Nc2ncc(C(F)(F)F)c(-c3c[nH]c4c(P(C)(C)=O)c(C#N)ccc34)n2)CN1 (centres undefined) + C#Cc1c(F)ccc2cc(O)cc(-c3ncc4c(N5CC6CCC(C5)N6)nc(OCC56CCCN5CC(F)C6)nc4c3F)c12 : 90.4

====

- Tested on: 362531-283-R-J2-PDC complex spheroid viability
- measurementProtocol: Anticancer human tumor 362531-283-R-J2-PDC cell line growth inhibition [RAS];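 note: spheroids exposed to the agents for 7 days before readout; luminescence viability as percent of DMSO vehicle control wells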
- assaySetup: second compound 0.3 µM; first compound 0.316 µM; stronger effect = lower value
Listing of recorded viability, T/C by entry.
Respond with the bare value in %.

For this molecule ( C=CC(=O)N1CCN(c2nc(OCC3CCCN3C)nc3c(F)c(-c4nc(N)cc(C)c4C(F)(F)F)c(Cl)cc23)C(C)C1 (configuration not stated) + CCn1c(-c2cccnc2C(C)OC)c2c3cc(ccc31)N1CCOC(CC(NC(=O)C(C(C)C)N(C)C(=O)C3(F)CCN(C(=O)C#CC(C)(C)N(C)C)CC3)C(=O)N3CCCC(N3)C(=O)OCC(C)(C)C2)C1 ), measured viability, T/C is 94.4

Form: molecule = CCN1CCN(Cc2ccc(Nc3ncc(F)c(-c4cc(F)c5nc(C)n(C(C)C)c5c4)n3)nc2)CC1 + CCn1c(-c2cc(N3CCN(C)CC3)cnc2C(C)OC)c2c3cc(ccc31)-c1csc(n1)CC(NC(=O)C1CC1C)C(=O)N1CCCC(N1)C(=O)OCC(C)(C)C2 ; viability, T/C = 6.94

Just so you know, measured viability, T/C for CC(Nc1ccc2c(c1)OCCn1cc(N3C(=O)OCC3C(F)F)nc1-2)C(N)=O (configuration not stated) + CCn1c(-c2cc(N3CCN(C)CC3)cnc2C(C)OC)c2c3cc(ccc31)-c1csc(n1)CC(NC(=O)C1CC1C)C(=O)N1CCCC(N1)C(=O)OCC(C)(C)C2 came out at 11.2

More entries:
Lab note: CC(C)NCC(C(=O)N1CCN(c2ncnc3c2C(C)CC3O)CC1)c1ccc(Cl)cc1 (configuration not stated) + CCn1c(-c2cccnc2C(C)OC)c2c3cc(ccc31)N1CCOC(CC(NC(=O)C(C(C)C)N(C)C(=O)C3(F)CCN(C(=O)C#CC(C)(C)N(C)C)CC3)C(=O)N3CCCC(N3)C(=O)OCC(C)(C)C2)C1 gave viability, T/C of 97.8
